- METHOD_NOTES: NCI Yeast Anticancer Drug Screen. Data for the bub3 strain (AID 167)
- MEASUREMENT_CONDITIONS: S. cerevisiae bub3 mutant strain, at 5.0 µM (retest, dose inferred, filed as 0.5)
About 79,000 compounds went through this panel and 15% of them were active in at least one assay; those are over-represented in the sample as a whole. The source made the active and inactive calls. No stated cut-off is given here; in the data, active means growth inhibition above about 70%; inactive means the rest.
Possible outcomes: active, inactive

MOLECULE: [N-]=[N+]=Nc1c([N+](=O)[O-])c(Cl)nc2ccccc12
CLASS_NAME: inactive
//
MOLECULE: CC(C)C1=CC23CCC4C(C)(C(=O)O)CCCC4(C)C2CC1C1C(=O)C=CC(=O)C13 (configuration not stated)
CLASS_NAME: active
//
MOLECULE: CSc1cccc(N2C(=O)C=CC2=O)c1
CLASS_NAME: active
//
MOLECULE: CCN(CC)CCSCCCNc1cc(OC)cc2cccnc12
CLASS_NAME: inactive
//
MOLECULE: CSC(=S)/C(=C/Nc1ncccn1)c1ccccc1
CLASS_NAME: inactive
//
MOLECULE: CCCCCCCCCCCC(=O)N(CC)CC
CLASS_NAME: inactive
//
MOLECULE: COc1c2c3c(ccnc3c3ccccc13)C(=O)N2C
CLASS_NAME: inactive
//
MOLECULE: CCN(CC)CCNc1ccc(C)c2sc3ccc(OC)cc3c(=O)c12
CLASS_NAME: inactive
//
MOLECULE: O=C1CCC/C1=C\c1ccccc1
CLASS_NAME: inactive
//
MOLECULE: O=C1OC2(CCCCC2)OC(=O)C1=Cc1ccc([N+](=O)[O-])s1
CLASS_NAME: inactive
//
MOLECULE: CC(C)c1ccc(O)c(O)c(=O)c1
CLASS_NAME: inactive
//
MOLECULE: CN(C)c1ccc(/C=C(/NC(=O)c2ccccc2)c2nc3ccc(Cl)cc3[nH]2)cc1
CLASS_NAME: inactive
//
MOLECULE: Nc1nc(-c2ccccc2)c(N=Nc2c(Cl)cccc2Cl)s1
CLASS_NAME: inactive
//
MOLECULE: COc1c(OC)c(C2(O)C(=O)N(C)c3ccccc32)c(OC)c(OC)c1C1(O)C(=O)N(C)c2ccccc21 (configuration not stated)
CLASS_NAME: inactive
//
MOLECULE: CCOc1ccccc1N=Nc1ccc2oc(=O)c(C(=O)Nc3cccc(C)c3)cc2c1
CLASS_NAME: inactive
//
MOLECULE: O=C(CNc1cccc([N+](=O)[O-])c1)Nn1c(-c2ccccc2)nc2ccccc2c1=O
CLASS_NAME: inactive
//
MOLECULE: CCC1=C(c2ccc(OC(C)=O)cc2)Cc2cc(OC(C)=O)ccc21
CLASS_NAME: inactive
//
MOLECULE: COC(=O)CSc1nc2[nH]c(SC)c(C(N)=O)c2c(=O)n1-c1ccccc1
CLASS_NAME: inactive
//
MOLECULE: O=C1C=C(c2ccccc2)O/C1=C/C(=O)c1ccc(Cl)cc1
CLASS_NAME: inactive
//
MOLECULE: CCCCNC(=O)OCc1c(COC(=O)NCCCC)c(-c2ccc(Cl)c(Cl)c2)n2c1CCC2
CLASS_NAME: inactive
//
MOLECULE: CCCc1cc(-c2ccc(O)c(CCC)c2)ccc1O
CLASS_NAME: active
//
MOLECULE: CCC[CH2][Sn]([CH2]CCC)([O]C(=O)c1cc(OC)c(OC)cc1OC)[O][Sn]([CH2]CCC)([CH2]CCC)[O]C(=O)c1cc(OC)c(OC)cc1OC
CLASS_NAME: active
